Sourced from ChEMBL document CHEMBL1201862

# Test system: ACHN
# procedure.text: NCI tumour cell line growth inhibition, 48 h
The source made the active and inactive calls. Cut-off read from the data, not from the text of the source: active = GI50 up to about 1.1 µM and inactive = higher.
Outcomes: YES = active, NO = inactive

[[record]]
molecule = "COc1ccc(/C=C\\c2cc(OC)c(OC)c(OC)c2)c(O)c1O [COMBRETASTATIN A-1]"
class_name = "YES"

[[record]]
molecule = "COc1ccc(-c2sc(Br)c3c2C(=O)C2OC(=O)NC32)cc1OC (stereo not given)"
class_name = "NO"

[[record]]
molecule = "Cc1ccc(/C=N/Nc2ncccn2)s1"
class_name = "NO"

[[record]]
molecule = "COc1cc2cnc(-c3ccccc3)cc2cc1OC"
class_name = "NO"

[[record]]
molecule = "O=[N+]([O-])c1ccc2c(c1)/C(=N/N=C1c3ccccc3Cc3ccccc31)c1cc([N+](=O)[O-])cc([N+](=O)[O-])c1-2"
class_name = "NO"

[[record]]
molecule = "COC(=O)c1ccc2c(c1)CC1(C2)Cc2ccccc2C1=O (stereo not given)"
class_name = "NO"

[[record]]
molecule = "O=C1CC(O)c2cscc21 (stereo not given)"
class_name = "NO"

[[record]]
molecule = "C[C@H](CCC(=O)O)[C@H]1CC[C@H]2[C@@H]3[C@@H](O)C[C@@H]4C[C@H](O)CC[C@]4(C)[C@H]3C[C@H](O)[C@]12C"
class_name = "NO"

[[record]]
molecule = "NC(Cc1c[nH]c(I)n1)C(=O)O (stereo not given)"
class_name = "NO"

[[record]]
molecule = "COC(OC)C(C)CC(=O)N(C)C (stereo not given)"
class_name = "NO"

[[record]]
molecule = "O=C(O)c1cc2ccccc2c(/N=N/c2ccc(S(=O)(=O)Nc3ncccn3)cc2)c1O"
class_name = "NO"

[[record]]
molecule = "Cc1nn(C(=O)Cc2ccccc2)c2c1C(c1ccccc1O)SC(=N)N2 (stereo not given)"
class_name = "NO"

[[record]]
molecule = "Cn1cc2ccccc2c1-c1nc(F)nc(Nc2ccc(N)cc2)n1"
class_name = "NO"

[[record]]
molecule = "CC(C)(C)C(C#N)(C#N)c1ccc(C(C#N)(C#N)C(C)(C)C)nn1"
class_name = "NO"

[[record]]
molecule = "CCOC(=O)C1CCCc2sc(N)c(C#N)c21 (stereo not given)"
class_name = "NO"

[[record]]
molecule = "COC(=O)[C@]1(c2cc3ccccc3[nH]2)CC2CN(CC(=O)N(C)OC)C1CC2(OC)OC (stereo not given in full)"
class_name = "NO"

[[record]]
molecule = "C#CCNC(=O)NCCCCC(NC(=O)OCc1ccccc1)C(=O)OCc1ccccc1 (stereo not given)"
class_name = "NO"

[[record]]
molecule = "O=C1/C(=C\\c2cccc(Oc3ccccc3)c2)S(=O)(=O)C(c2ccccc2)N1c1cc(Cl)ccc1Cl (stereo not given)"
class_name = "NO"

[[record]]
molecule = "CN(C)c1nc(NN)c2c(-c3ccccc3)c(-c3ccccc3)oc2n1"
class_name = "NO"

[[record]]
molecule = "COc1ccc(Cc2nc3cc(C(F)(F)F)ccc3n2CCCN(C)C)cc1"
class_name = "NO"


----------
This section presents molecules with their documented GI50 values.
# Tested on: U-251
# procedure.text: NCI tumour cell line growth inhibition, 48 h
Calls of active or inactive are those of the source. Rule as the data show it: active = GI50 up to about 1.1 µM and inactive = higher.
measured.attribute: GI50

[[record]]
molecule = "CC1=CC(C)(C)NN1C1=NS(=O)(=O)c2ccccc2N1C"
reported_result = "> 100 µM (inactive)"

[[record]]
molecule = "CN(C(=O)c1ccc(Cl)cc1)C(=S)N1CCN(c2ccccn2)CC1"
reported_result = "> 100 µM (inactive)"

[[record]]
molecule = "Nc1nc(Cl)cc(NCCO)n1"
reported_result = "> 100 µM (inactive)"

[[record]]
molecule = "c1ccc2c(c1)N[C@@H]1c3[nH]c4ccccc4c3CC[C@H]21"
reported_result = "14.2 µM (inactive)"

[[record]]
molecule = "CC1(C)CN=C(c2ccc3ccccc3c2O)N1"
reported_result = "> 100 µM (inactive)"

[[record]]
molecule = "N=C(N)N/N=C/c1c(-c2ccc(Cl)cc2)nc2n1CCS2"
reported_result = "12.9 µM (inactive)"

[[record]]
molecule = "CC1=C(C(=O)N[C@@H](CC(C)C)C(=O)O)N2C(=O)[C@@H](NC(=O)[C@@H](N)Cc3ccccc3)[C@H]2SC1"
reported_result = "> 100 µM (inactive)"

[[record]]
molecule = "C/C(=N\\NC(=O)C[N+](C)(C)C)c1sc(-c2cccnc2)nc1C"
reported_result = "> 100 µM (inactive)"

[[record]]
molecule = "COc1ccc(C2SCC(=O)N2c2ccc(-n3c(-c4ccccc4)nc4ccccc4c3=O)cc2)cc1OC (stereo unspecified)"
reported_result = "> 100 µM (inactive)"

[[record]]
molecule = "Cc1cn(C2CC(O)C(Cn3nncc3Cn3cnc4c(N)ncnc43)O2)c(=O)[nH]c1=O (stereo unspecified)"
reported_result = "> 100 µM (inactive)"

[[record]]
molecule = "N/C(=N\\Nc1ccc(S(N)(=O)=O)cc1)c1cnccn1"
reported_result = "> 100 µM (inactive)"


----------
# Test system: HCT-15
# procedure.text: NCI tumour cell line growth inhibition, 48 h
measured.attribute: GI50 (µM)

[[record]]
molecule = "CCc1n[nH]c(=O)n1N"
tgt = "HCT-15"
unit_of_measurement = "µM"
censoring_qualifier = ">"
reported_result = 100

[[record]]
molecule = "N/C(=N\\Nc1ccc(S(N)(=O)=O)cc1)c1cnccn1"
tgt = "HCT-15"
unit_of_measurement = "µM"
censoring_qualifier = ">"
reported_result = 100

[[record]]
molecule = "CC1(C)Cc2nc3c(cc2C(=O)C1/C=N/C(C#N)=C(\\N)C#N)C(=O)C(/C=N/C(C#N)=C(\\N)C#N)C(C)(C)C3 (stereo not given)"
tgt = "HCT-15"
unit_of_measurement = "µM"
censoring_qualifier = "="
reported_result = 2.36

[[record]]
molecule = "CCOC1c2cc(OC)c(OC)cc2-c2ccc3ccccc3c2N1C (stereo not given)"
tgt = "HCT-15"
unit_of_measurement = "µM"
censoring_qualifier = "="
reported_result = 60.1

[[record]]
molecule = "O=C1CC(c2ccccc2Cl)C2(C(=O)NC(=S)NC2=O)C(c2ccccc2Cl)C1 (stereo not given)"
tgt = "HCT-15"
unit_of_measurement = "µM"
censoring_qualifier = "="
reported_result = 21.1

[[record]]
molecule = "O=C1CC2[C@@H](N3CCCC3)CCC(N1Cc1ccccc1)C2(O)O (stereo not given in full)"
tgt = "HCT-15"
unit_of_measurement = "µM"
censoring_qualifier = ">"
reported_result = 100

[[record]]
molecule = "COc1cccc2c1C(=O)c1c(O)c3c(c(O)c1C2=O)C[C@@](O)(C(=O)CO)CC3OC1CC(NCCCC(OC(C)=O)OC(C)=O)C(O)C(C)O1 (stereo not given in full)"
tgt = "HCT-15"
unit_of_measurement = "µM"
censoring_qualifier = "="
reported_result = 0.00225

[[record]]
molecule = "O=C1NI(C#Cc2ccccc2)c2ccccc21"
tgt = "HCT-15"
unit_of_measurement = "µM"
censoring_qualifier = ">"
reported_result = 100

[[record]]
molecule = "c1ccc2cc3c(cc2c1)nc1ccccn13"
tgt = "HCT-15"
unit_of_measurement = "µM"
censoring_qualifier = ">"
reported_result = 100

[[record]]
molecule = "C[Si](C)(C)C1=C2C(=O)c3ccccc3C(=O)C2=C([Si](C)(C)C)[C@@H]2CCCC[C@H]12"
tgt = "HCT-15"
unit_of_measurement = "µM"
censoring_qualifier = ">"
reported_result = 100


----------
Each entry below lists one item and its recorded GI50 value.
# System: SK-MEL-28
# procedure.text: NCI tumour cell line growth inhibition, 48 h
The source made the active and inactive calls. Rule as the data show it: active = GI50 up to about 1.1 µM and inactive = higher.
measured.attribute: GI50

[[record]]
molecule = "C[C@]12CC[C@H](O)CC1=CC[C@@H]1[C@@H]2CC[C@]2(C)NC(=O)/C(=C\\c3ccccc3)C[C@@H]12"
measured_attribute = "GI50"
reported_result = "16.7 µM (inactive)"

[[record]]
molecule = "C=CC/C=C/Cc1csc(C(C)(C)C(O)C/C=C/C(=C)CCNC(=O)OC)n1 (stereo unspecified)"
measured_attribute = "GI50"
reported_result = "> 87.1 µM (inactive)"

[[record]]
molecule = "NC(CCCNc1ccc(O)cc1)C(=O)O (stereo unspecified)"
measured_attribute = "GI50"
reported_result = "42.6 µM (inactive)"

[[record]]
molecule = "[N-]=[N+]=N/C1=C/CCCCC(=O)C1"
measured_attribute = "GI50"
reported_result = "> 100 µM (inactive)"

[[record]]
molecule = "COc1cccc(C2ON=C(c3ccccc3)N2C23CC4CC(CC(C4)C2)C3)c1 (stereo unspecified)"
measured_attribute = "GI50"
reported_result = "> 10 µM (inactive)"

[[record]]
molecule = "O=C1CC2[C@@H](N3CCCC3)CCC(N1Cc1ccccc1)C2(O)O (stereo partly specified)"
measured_attribute = "GI50"
reported_result = "> 100 µM (inactive)"

